Just for reference, ChEMBL document CHEMBL4373715 is where these values come from.

biological target: DNA topoisomerase 2-alpha (Homo sapiens); assay: Inhibition of recombinant human topoisomerase 2alpha-mediated relaxation of supercoiled pBR322 DNA at 100 uM measured after 30 mins by ethidium bromide staining based agarose gel electrophoresis relative to control
In this scheme, each record receives a class according to its inhibition; the ranges are small value: < 70%; mid value: ≥ 70% and < 90%; large value: ≥ 90%

The entry to classify is "Oc1ccc2c(c1)Cc1c(-c3ccccc3O)cc(-c3ccccc3F)nc1-2" ; which class holds it?
small value

The entry to classify is "Oc1cccc(-c2cc(-c3ccccc3C(F)(F)F)nc3c2Cc2cc(O)ccc2-3)c1" ; which class holds it?
mid value

The entry to classify is "Oc1ccc2c(c1)-c1nc(-c3ccc(F)cc3)cc(-c3ccccc3O)c1C2" ; which class holds it?
small value

The entry to classify is "Oc1cccc(-c2cc(-c3ccc(F)cc3)nc3c2Cc2cc(O)ccc2-3)c1" ; which class holds it?
small value

The entry to classify is "Oc1ccccc1-c1cc(-c2cccc(Cl)c2)nc2c1Cc1cccc(O)c1-2" ; which class holds it?
mid value

The entry to classify is "Oc1ccccc1-c1cc(-c2cccc(Cl)c2)c2c(n1)-c1cccc(O)c1C2" ; which class holds it?
mid value

The entry to classify is "Oc1cccc(-c2cc(-c3ccccc3Cl)nc3c2Cc2cc(O)ccc2-3)c1" ; which class holds it?
large value

The entry to classify is "Oc1ccc(-c2cc(-c3ccccc3C(F)(F)F)nc3c2Cc2cccc(O)c2-3)cc1" ; which class holds it?
small value

The entry to classify is "Oc1cccc(-c2cc(-c3ccc(C(F)(F)F)cc3)nc3c2Cc2cc(O)ccc2-3)c1" ; which class holds it?
large value

The entry to classify is "Oc1cccc(-c2cc(-c3ccccc3)c3c(n2)-c2ccc(O)cc2C3)c1" ; which class holds it?
small value

The entry to classify is "Oc1cccc(-c2cc(-c3ccccc3F)nc3c2Cc2cccc(O)c2-3)c1" ; which class holds it?
small value

The entry to classify is "Oc1cccc(-c2cc(-c3ccccc3)nc3c2Cc2cc(O)ccc2-3)c1" ; which class holds it?
large value

The entry to classify is "Oc1cccc(-c2cc(-c3ccccc3C(F)(F)F)nc3c2Cc2ccc(O)cc2-3)c1" ; which class holds it?
mid value

The entry to classify is "Oc1cccc(-c2cc(-c3ccc(Cl)cc3)c3c(n2)-c2cccc(O)c2C3)c1" ; which class holds it?
mid value

The entry to classify is "Oc1ccccc1-c1cc(-c2cccc(C(F)(F)F)c2)nc2c1Cc1cccc(O)c1-2" ; which class holds it?
large value

The entry to classify is "Oc1ccc(-c2cc(-c3ccccc3)nc3c2Cc2cc(O)ccc2-3)cc1" ; which class holds it?
small value

---

target: DNA topoisomerase 2-alpha (Homo sapiens); experiment: Inhibition of recombinant human topoisomerase 2alpha-mediated relaxation of supercoiled pBR322 DNA at 20 uM measured after 30 mins by ethidium bromide staining based agarose gel electrophoresis relative to control
Outcome label depends on inhibition relative to 2%: at/above gives Y, below gives N.

Textbook exercise: given the entry "Oc1ccc2c(c1)Cc1c(-c3ccccc3O)cc(-c3cccc(C(F)(F)F)c3)nc1-2" , state whether its inhibition is greater than or equal to 2%.
Y

Textbook exercise: given the entry "Oc1ccccc1-c1cc(-c2cccc(Cl)c2)c2c(n1)-c1cccc(O)c1C2" , state whether its inhibition is greater than or equal to 2%.
N

Textbook exercise: given the entry "Oc1ccc2c(c1)-c1nc(-c3ccccc3Cl)cc(-c3ccccc3O)c1C2" , state whether its inhibition is greater than or equal to 2%.
Y

Textbook exercise: given the entry "Oc1ccccc1-c1cc(-c2ccc(Cl)cc2)nc2c1Cc1c(O)cccc1-2" , state whether its inhibition is greater than or equal to 2%.
Y

Textbook exercise: given the entry "Oc1cccc(-c2cc(-c3ccccc3C(F)(F)F)nc3c2Cc2cc(O)ccc2-3)c1" , state whether its inhibition is greater than or equal to 2%.
Y
